Values compiled from patent US20210380703A1.

Listed here are binders together with their documented optical density.
assaySystem: Human Fc (human)
assayInfo: ELISA, negative control

These solved cases illustrate the format of a correct answer.
binder	valueReported
369_C04 (antibody, V domains shown) VH: EVQLLESGGGLVQPGGSLRLSCAASGFTFSSYSMNWVRQAPGKGLEWVSNINYNGGYTGYADSVKGRFTISRDNSKNTLYLQMNSLRAEDTAVYYCARSANWHDTALDYWGQGTLVTVSS VL: DIQMTQSPSSLSASVGDRVTITCRASQSILTYVNWYQQKPGKAPKLLIYTTTSLHSGVPSRFSGSGSGTDFTLTISSLQPEDFATYYCQQSYNNPLTFGGGTKVEIK	0.248 OD
370_A01 (antibody, V domains shown) VH: EVQLLESGGGLVQPGGSLRLSCAASGFTFSSYSMNWVRQAPGKGLEWVSGINYNSGYKSYADSVKGRFTISRDNSKNTLYLQMNSLRAEDTAVYYCARSANWHDTALDYWGQGTLVTVSS VL: DIQMTQSPSSLSASVGDRVTITCRASQSISTYLNWYQQKPGKAPKLVIYAATSRASGVPSRFSGSGSGTDFTLTISSLQPEDFATYYCQQSYNLPLTFGGGTKVEIK	0.637 OD
369_F03 (antibody, V domains shown) VH: EVQLLESGGGLVQPGGSLRLSCAASGFTFSDYGMNWVRQAPGKGLEWVSGINYNSGYTSYADSVKGRFTISRDNSKNTLYLQMNSLRAEDTAVYYCARSANWHDTALDYWGQGTLVTVSS VL: DIQMTQSPSSLSASVGDRVTITCRASQSIVSYVNWYQQKPGKAPKLLIYAATSLASGVPSRFSGSGSGTDFTLTISSLQPEDFATYYCQQSYDSPLTFGGGTKVEIK	0.389 OD
367_G10 (antibody, V domains shown) VH: EVQLLESGGGLVQPGGSLRLSCAASGFTFDDYGMNWVRQAPGKGLEWVSGINYNGGYTSYADSVKGRFTISRDNSKNTLYLQMNSLRAEDTAVYYCARSANWHDTALDYWGQGTLVTVSS VL: DIQMTQSPSSLSASVGDRVTITCRASQSIISYVNWYQQKPGKAPKLLIYAATSRASGVPSRFSGSGSGTDFTLTISSLQPEDFATYYCQQSYDSPLTFGGGTKVEIK	0.286 OD
367_E11 (antibody, V domains shown) VH: EVQLLESGGGLVQPGGSLRLSCAASGFTFDSYGMNWVRQAPGKGLEWVSSINYNSGYKGYADSVKGRFTISRDNSKNTLYLQMNSLRAEDTAVYYCARSANWHDTHLDYWGQGTLVTVSS VL: DIQMTQSPSSLSASVGDRVTITCRASQSIVSYVNWYQQKPGKAPKLVIYAATSRHSGVPSRFSGSGSGTDFTLTISSLQPEDFATYYCQQSYDTPLTFGGGTKVEIK	0.244 OD
373_E07 (antibody, V domains shown) VH: EVQLLESGGGLVQPGGSLRLSCAASGFTFSSYGMNWVRQAPGKGLEWVANINYNGGYTSYADSVKGRFTISRDNSKNTLYLQMNSLRAEDTAVYYCARSANWHDTALDYWGQGTLVTVSS VL: DIQMTQSPSSLSASVGDRVTITCRASQSILTYVNWYQQKPGKAPKLLIYAATSLASGVPSRFSGSGSGTDFTLTISSLQPEDFATYYCQQSYETPLTFGGGTKVEIK	0.294 OD
369_D04 (antibody, V domains shown) VH: EVQLLESGGGLVQPGGSLRLSCAASGFTFDSYGMNWVRQAPGKGLEWVSGINYNGGYTSYADSVKGRFTISRDNSKNTLYLQMNSLRAEDTAVYYCARSANWHDTALDYWGQGTLVTVSS VL: DIQMTQSPSSLSASVGDRVTITCRASQSILSYVNWYQQKPGKAPKLVIYAATSRASGVPSRFSGSGSGTDFTLTISSLQPEDFATYYCQQSYNLPLTFGGGTKVEIK	0.435 OD
371_G10 (antibody, V domains shown) VH: EVQLLESGGGLVQPGGSLRLSCAASGFTFSSYSMNWVRQAPGKGLEWVSGINYNGGYKSYADSVKGRFTISRDNSKNTLYLQMNSLRAEDTAVYYCARSANWHDTALDYWGQGTLVTVSS VL: DIQMTQSPSSLSASVGDRVTITCRASQSISSYVNWYQQKPGKAPKLLIYAATSRHSGVPSRFSGSGSGTDFTLTISSLQPEDFATYYCQQSDDSPLTFGGGTKVEIK	0.439 OD

I'd like to know its optical density. The binder in question is 370_E09 (antibody, V domains shown) VH: EVQLLESGGGLVQPGGSLRLSCAASGFTFDDSSMHWVRQAPGKGLEWVSNINYNGGYTGYADSVKGRFTISRDNSKNTLYLQMNSLRAEDTAVYYCAKSANWHDTALDYWGQGTLVTVSS VL: DIQMTQSPSSLSASVGDRVTITCRASQSILSYVNWYQQKPGKAPKLVIYAATSRASGVPSRFSGSGSGTDFTLTISSLQPEDFATYYCQQSYELPLTFGGGTKVEIK
0.338 OD

And the next one, 367_C05 (antibody, V domains shown) VH: EVQLLESGGGLVQPGGSLRLSCAASGFTFDDYGMNWVRQAPGKGLEWVSSINYNGGYTGYADSVKGRFTISRDNSKNTLYLQMNSLRAEDTAVYYCARSANWHDTHLDYWGQGTLVTVSS VL: DIQMTQSPSSLSASVGDRVTITCRASQSILSYVNWYQQKPGKAPKLVIYAATSRHSGVPSRFSGSGSGTDFTLTISSLQPEDFATYYCQQSYDLPLTFGGGTKVEIK ?
0.255 OD
